Value source: PubChem BioAssay (Tox21)

# Assay Procedure: qHTS assay for small molecules that induce genotoxicity in human embryonic kidney cells expressing luciferase-tagged ATAD5 (AID 651632); note: nearly all actives have a fitted effect of over 15% in size
# Recorded Conditions: HEK293T ATAD5-luciferase induction, 16 h; series mostly up to 83.3 µM
Results filed as inconclusive are left out. The source made the active and inactive calls. Calls come from the whole dose curve; as a rule, active = well fitted activation curve with a large enough effect in the repeat runs; inconclusive = weak or mixed curves; inactive = no such curve, though single readings can be large or run the other way.
Tick one outcome: yes for active, no for inactive

[
  {
    "Compound": "CC1CCCC(=O)C1=O (stereo not drawn)",
    "Classification": "no"
  },
  {
    "Compound": "CC1CCC(C(C)CS)CC1S (stereo not drawn)",
    "Classification": "no"
  },
  {
    "Compound": "CN1CCCN(C(c2ccccc2)c2ccc(Cl)cc2)CC1 (stereo not drawn)",
    "Classification": "no"
  },
  {
    "Compound": "O=C(C(=O)c1ccco1)c1ccco1",
    "Classification": "no"
  },
  {
    "Compound": "O=C(NS(=O)(=O)/C=C/c1ccccc1)c1ccc(F)cc1Cl",
    "Classification": "yes"
  },
  {
    "Compound": "CCCCCCC(O)CCCCCCCCCCC(=O)OC (stereo not drawn)",
    "Classification": "no"
  },
  {
    "Compound": "COC(=O)C1=C(C)NC(C)=C(C(=O)OC(C)(C)CN(C)CCC(c2ccccc2)c2ccccc2)C1c1cccc([N+](=O)[O-])c1 (stereo not drawn)",
    "Classification": "no"
  },
  {
    "Compound": "CC(C)c1ccc(C(=O)N=C(N)N)cc1S(C)(=O)=O",
    "Classification": "no"
  },
  {
    "Compound": "CCN(CC)c1cccc(O)c1",
    "Classification": "no"
  },
  {
    "Compound": "O=C(NC(Cc1cc(=O)[nH]c2ccccc12)C(=O)O)c1ccc(Cl)cc1 (stereo not drawn)",
    "Classification": "no"
  }
]

Given ClC1=C(Cl)C1(Cl)Cl , state the outcome it received in this test.
no

Test call for this compound, please: O=P(O)(O)Oc1ccccc1
no

For this compound, state the assay outcome: COC(C)(C)OC
no

###

# Assay Procedure: qHTS RealTime-Glo MT Cell Viability Assay in HEK293 cells - 8 hour (AID 1224887); note: top concentration of the series differs between compounds; nearly all actives have a fitted effect of over 50% in size
# Recorded Conditions: RealTime-Glo luminescence; series mostly up to 76.8 µM
Results filed as inconclusive are left out. The source made the active and inactive calls. The call rests on the fitted dose curve; in most records, active means well fitted cell-killing curve with a large enough effect in the repeat runs; inconclusive means weak or mixed curves, or effect the other way; inactive means flat fitted curve, though single readings scatter.
Mark one answer only. Choices: TRUE = active, FALSE = inactive

[
  {
    "Compound": "CCN(CC)c1cccc(O)c1",
    "Classification": "FALSE"
  },
  {
    "Compound": "Cc1ccc(S(=O)(=O)NC(=O)NC2CCCCC2)cc1",
    "Classification": "FALSE"
  },
  {
    "Compound": "CCc1ccc(C)cc1",
    "Classification": "FALSE"
  },
  {
    "Compound": "O=C(O)CNC(=O)c1ccccc1I",
    "Classification": "FALSE"
  },
  {
    "Compound": "Oc1cccc2[nH]ccc12",
    "Classification": "FALSE"
  },
  {
    "Compound": "C=Cc1ccc(OC(C)=O)cc1",
    "Classification": "FALSE"
  },
  {
    "Compound": "CC(=O)OC(C)C[N+](C)(C)C (centres undefined)",
    "Classification": "FALSE"
  },
  {
    "Compound": "Nc1c(Cl)cc(Cl)cc1[N+](=O)[O-]",
    "Classification": "FALSE"
  }
]

Please turn your attention to the following entry.
So what was the verdict on C=CC(=O)NC(C)C in this test?
FALSE
